Study system: BRD4 BD2 (Homo sapiens, UniProt O60885)
Protocol notes: AlphaScreen binding assay, BRD4 Bromodomain 2
Entries and their measured IC50 follow.

# example entries with known answers
CC(=O)N1c2ccc(-c3ccc(C(=O)N4CCNCC4)cc3)cc2N(C(=O)C2CC2)C[C@@H]1C; 50 to 500 nM
CC(=O)N1c2ccc(-c3cccc(NS(C)(=O)=O)c3)cc2N(C(=O)c2ccco2)C[C@@H]1C; < 50 nM
CC(=O)N1c2ccc(-c3cccc(S(=O)(=O)N(C)C)c3)cc2N(C(=O)OC(C)C)C[C@@H]1C; 50 to 500 nM
CC(=O)N1c2ccccc2N(Cc2ccc3c(c2)OCO3)C[C@@H]1C; > 500 nM
CC(=O)N1c2ccccc2N(S(=O)(=O)c2ccccc2C#N)C[C@@H]1C; > 500 nM

Look up IC50 for this compound: CC(=O)N1c2ccc(-c3cnn(CCO)c3)cc2N(c2nn(C)c3c(F)cccc23)C[C@@H]1C
< 50 nM

Look up IC50 for this compound: CC(=O)N1c2ccccc2N(C(=O)c2ccc(Oc3ccccc3)cc2)C[C@@H]1C
> 500 nM

Look up IC50 for this compound: CC(=O)Nc1cc2c(cc1Br)N(C(=O)OC(C)C)C[C@H](C)N2C(C)=O
> 500 nM

Look up IC50 for this compound: CO[C@@H](C(=O)N1C[C@H](C)N(C(C)=O)c2ccccc21)c1ccccc1
> 500 nM

---

Study system: BRD4 BD2 (Homo sapiens)
Protocol notes: AlphaScreen binding assay, BRD4 Bromodomain 2
Metric name: IC50

# example entries with known answers
COc1cc(F)ccc1OC(=O)N1C[C@H](C)N(C(C)=O)c2ccc(-c3cnn(C4CC4)c3)cc21; < 50 nM
CC(=O)N1c2ccccc2N(C(=O)c2cc(C)on2)C[C@@H]1C; > 500 nM
CC(=O)N1c2ccccc2N(C(=O)c2ccco2)C[C@@H]1C; 50 to 500 nM
CC(=O)N1c2ccc(-c3ccc(C(=O)N[C@H]4C[C@H]5CC[C@@H](C4)N5)cc3)cc2N(C(=O)OC(C)C)C[C@@H]1C; 50 to 500 nM
C[C@H]1CN(C(=O)c2ccco2)c2cc(-c3ccc(S(C)(=O)=O)cc3)ccc2N1C(=O)c1ccno1; > 500 nM

Look up IC50 for this molecule: CC(=O)N1c2ccc(-c3ccc(NS(=O)(=O)C4CC4)cc3)cc2N(C(=O)OC(C)C)C[C@@H]1C
< 50 nM

Look up IC50 for this molecule: COc1ccc(C#N)cc1OC(=O)N1C[C@H](C)N(C(C)=O)c2ccc(-c3cnn(C4CC4)c3)cc21
50 to 500 nM

Look up IC50 for this molecule: CC(=O)N1c2ccc(-c3cccc(S(=O)(=O)C4CC4)c3)cc2N(C(=O)OC(C)C)C[C@@H]1C
50 to 500 nM

Look up IC50 for this molecule: CC(=O)N1c2ccc(-c3ccc(C(N)=O)cc3)cc2N(C(=O)c2ccco2)C[C@@H]1C
> 500 nM

Look up IC50 for this molecule: CC(=O)N1c2ccc(-c3cnn(C4CC4)c3)cc2N(C(=O)Oc2cc(F)ccc2F)C[C@@H]1C
50 to 500 nM

Look up IC50 for this molecule: CC(=O)N1c2ccc(-c3ccc(N4CCOCC4)cc3)cc2N(C(=O)C2CCC2)C[C@@H]1C
50 to 500 nM

Look up IC50 for this molecule: CC(=O)N1c2ccc(-c3cnn(C4COC4)c3)cc2N(C(=O)Oc2cccnc2)C[C@@H]1C
< 50 nM

Look up IC50 for this molecule: CC(=O)N1c2ccc(-c3cnn(CCC#N)c3)cc2N(C(=O)OC(C)C)C[C@@H]1C
50 to 500 nM

Look up IC50 for this molecule: CC(C)OC(=O)N1C[C@H](C)N(C(=O)C2CC2)c2ccc(-c3ccc(C(=O)N4CCN(S(C)(=O)=O)CC4)cc3)cc21
> 500 nM

Look up IC50 for this molecule: CC(C)OC(=O)N1C[C@H](C)N(C(=O)C2CC2)c2ccc(-c3ccc(C(=O)N4CC[C@H](O)C4)cc3)cc21
50 to 500 nM

Look up IC50 for this molecule: CC(C)OC(=O)N1C[C@H](C)N(C(=O)C2CC2)c2ccc(-c3cnn(CC(C)(C)O)c3)cc21
50 to 500 nM

Look up IC50 for this molecule: CC(=O)N1c2ccc(-c3ccc(S(=O)(=O)CCO)cc3)cc2N(C(=O)c2ccco2)C[C@@H]1C
50 to 500 nM

Look up IC50 for this molecule: CC(=O)N1c2ccc(-c3ccc(S(C)(=O)=O)cc3)cc2N(C(=O)c2cc3cc(OC(F)(F)F)ccc3[nH]2)CC1C (stereo not drawn)
> 500 nM

Look up IC50 for this molecule: CC(=O)N1c2ccc(-c3cnn(CCS(C)(=O)=O)c3)cc2N(C(=O)C2CC2)CC1C (stereo not drawn)
50 to 500 nM

Look up IC50 for this molecule: CC(=O)N1c2ccc(-c3cnn(CC(F)(F)F)c3)cc2N(C(=O)OC(C)C)C[C@@H]1C
50 to 500 nM

Look up IC50 for this molecule: CC(=O)N1c2ccc(-c3ccc4nncn4n3)cc2N(C(=O)c2ccco2)C[C@@H]1C
50 to 500 nM

Look up IC50 for this molecule: CC(=O)N1c2ccc(-c3cc4ccccc4n3C)cc2N(C(=O)c2ccco2)C[C@@H]1C
> 500 nM

---

Study system: BRD4 BD1 (Homo sapiens, UniProt O60885)
Protocol notes: AlphaScreen binding assay, BRD4 Bromodomain 1
pIC50: −log10 of the molar value.
Metric name: pIC50

# example entries with known answers
CCS(=O)(=O)Nc1ccc(-c2ccc3c(c2)N(C(=O)OC(C)C)C[C@H](C)N3C(C)=O)cc1; 6.00 to 7.00
CCN(CC)S(=O)(=O)c1cc(-c2ccc3c(c2)N(C(=O)C2CC2)C[C@H](C)N3C(C)=O)ccc1OC; 5.00 to 6.00

Turning to the following molecule.
Look up pIC50 for this molecule: CC(=O)N1c2ccccc2N(S(=O)(=O)c2ccc(C)cc2)C[C@@H]1C
< 5.00

---

Study system: BRD4 BD1 (Homo sapiens)
Protocol notes: AlphaScreen binding assay, BRD4 Bromodomain 1
Entries and their measured IC50 follow.

# example entries with known answers
CC(=O)N1c2ccc(-c3ccc(S(C)(=O)=O)cc3)cc2N(C(=O)c2cc3cc(O)ccc3[nH]2)CC1C (stereo not shown); 1000 to 10000 nM
CNC(=O)CN(C)C(=O)c1ccc(-c2ccc3c(c2)N(C(=O)OC(C)C)C[C@H](C)N3C(=O)OC)cc1; 100 to 1000 nM
CC(=O)N1c2ccc(-c3ccc(N4CCS(=O)(=O)CC4)cc3)cc2N(C(=O)C2CC2)C[C@@H]1C; 100 to 1000 nM

Given the entry CC(=O)N1c2ccc(-c3ccc(N4CCCC4=O)cc3)cc2N(C(=O)OC(C)C)C[C@@H]1C , what IC50 was observed with BRD4 BD1 (Homo sapiens)?
100 to 1000 nM

---

Study system: BRD4 BD1 (Homo sapiens)
Protocol notes: AlphaScreen binding assay, BRD4 Bromodomain 1
pIC50: −log10 of the molar value.
Metric name: pIC50

CC(=O)N1c2ccc(-c3cccc4c3OCC4)cc2N(C(=O)c2ccco2)C[C@@H]1C; 5.00 to 6.00

Look up pIC50 for this compound: COc1ccc(OCC(=O)N2C[C@H](C)N(C(C)=O)c3ccccc32)cc1
< 5.00

Look up pIC50 for this compound: CC(=O)N1c2ccc(-c3cnn(C4CCOCC4)c3)cc2N(C(=O)OC2CCCC2)C[C@@H]1C
> 7.00

Look up pIC50 for this compound: CC(=O)N1c2ccc(-c3cccc(NS(=O)(=O)N(C)C)c3)cc2N(C(=O)OC2CCCCC2)C[C@@H]1C
6.00 to 7.00

Look up pIC50 for this compound: CC(=O)N1c2ccc(-c3ccc(S(C)(=O)=O)cc3)cc2N(C(=O)NCc2ccc(C)cc2)C[C@@H]1C
< 5.00

Look up pIC50 for this compound: C[C@H]1CN(C(=O)C2CC2)c2cc(-c3cnn(C4CC4)c3)ccc2N1C(=O)C1CC1
6.00 to 7.00

Look up pIC50 for this compound: CC(C)OC(=O)N1C[C@H](C)N(C(=O)C2CC2)c2ccc(-c3cnn(C4CC4)c3)cc21
6.00 to 7.00

Look up pIC50 for this compound: CC(=O)N1c2ccc(-c3ccc(-c4nnco4)cc3)cc2N(C(=O)c2ccco2)C[C@@H]1C
5.00 to 6.00

Look up pIC50 for this compound: CC(=O)N1c2ccc(-c3cccc(S(=O)(=O)NCCO)c3)cc2N(C(=O)C2CC2)C[C@@H]1C
5.00 to 6.00

Look up pIC50 for this compound: CC(=O)N1c2ccc(-c3ccc(NS(C)(=O)=O)cc3)cc2N(C(=O)OC(C)C)C[C@@H]1C
6.00 to 7.00

Look up pIC50 for this compound: COC(=O)N1c2ccc(-c3cnn(C4CC4)c3)cc2N(C(=O)OC(C)C)C[C@@H]1C
6.00 to 7.00

All values here come from patent US10703764B2.
